- ASSAY_DETAILS: Cytotoxicity against human Hep3B cells assessed as growth inhibition after 72 hrs by MTT assay
- Type: functional, cell-based, Hep 3B2
METRIC: pIC50
Just the number, please; pIC50 means minus log10 of the concentration in mol/L.

Worked cases, answers included:
>  <COMPOUND>
COc1cc2c(c(OC)c1OC)-c1ccc(OC)c(=O)cc1[C@@H](NC(C)=O)CC2 [COLCHICINE]

>  <pIC50>
7.85

$$$$
>  <COMPOUND>
Nc1ccccc1NC(=O)c1ccc(CNc2nccc(-c3cccnc3)n2)cc1 [MOCETINOSTAT]

>  <pIC50>
6.08

$$$$
>  <COMPOUND>
COc1cc2c(c(OC)c1OC)-c1ccc(OC)c(=O)cc1[C@@H](NCc1ccc(C(=O)Nc3ccccc3N)cc1)CC2

>  <pIC50>
8.30

$$$$

// next entry
q: Please look up its pIC50: COc1cc2c(c(OC)c1OC)-c1ccc(OC)c(=O)cc1[C@@H](NC(=O)c1cccc(C(=O)Nc3cc(-c4cccs4)ccc3N)c1)CC2
a: 8.00

###

- ASSAY_DETAILS: Cytotoxicity against human MHCC97H cells assessed as growth inhibition after 72 hrs by MTT assay
- Type: functional, cell-based
Recorded pIC50 by entry
Just the number, please; pIC50 means minus log10 of the concentration in mol/L.

>  <COMPOUND>
Nc1ccccc1NC(=O)c1ccc(CNc2nccc(-c3cccnc3)n2)cc1

>  <RESULT_VALUE>
5.34

$$$$

q: Please look up its pIC50: COc1cc2c(c(OC)c1OC)-c1ccc(OC)c(=O)cc1[C@@H](NC(=O)c1cccc(C(=O)Nc3cc(-c4cccs4)ccc3N)c1)CC2
a: 6.47

q: Please look up its pIC50: COc1cc2c(c(OC)c1OC)-c1ccc(OC)c(=O)cc1[C@@H](NCc1ccc(C(=O)Nc3ccccc3N)cc1)CC2
a: 7.37

q: Please look up its pIC50: COc1cc2c(c(OC)c1OC)-c1ccc(OC)c(=O)cc1[C@@H](NC(C)=O)CC2
a: 6.96

###

- STUDY_SYSTEM: Histone deacetylase 2 (Homo sapiens, UniProt Q92769)
- Sequence (Q92769 whole entry): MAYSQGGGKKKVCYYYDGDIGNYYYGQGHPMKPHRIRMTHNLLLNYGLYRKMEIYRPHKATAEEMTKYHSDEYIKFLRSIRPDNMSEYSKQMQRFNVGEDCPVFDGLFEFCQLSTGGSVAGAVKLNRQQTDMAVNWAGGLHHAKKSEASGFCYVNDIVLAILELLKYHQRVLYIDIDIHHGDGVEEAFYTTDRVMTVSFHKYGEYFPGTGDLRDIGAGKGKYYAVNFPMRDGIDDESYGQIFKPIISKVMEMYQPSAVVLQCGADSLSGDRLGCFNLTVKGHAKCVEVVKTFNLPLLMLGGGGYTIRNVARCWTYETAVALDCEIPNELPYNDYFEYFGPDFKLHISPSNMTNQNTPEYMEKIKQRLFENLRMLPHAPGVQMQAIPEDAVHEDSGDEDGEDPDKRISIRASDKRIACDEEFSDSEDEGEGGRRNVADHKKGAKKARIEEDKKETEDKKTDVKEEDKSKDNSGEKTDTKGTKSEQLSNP
- ASSAY_DETAILS: Inhibition of recombinant human HDAC2 expressed in baculovirus infected insect High5 cells using Ac-Lys-Tyr-Lys (epsilon-acetyl)-AMC as substrate after 24 hrs by fluorescence assay
Recorded pIC50 by entry
Just the number, please; pIC50 means minus log10 of the concentration in mol/L.

Worked cases, answers included:
>  <COMPOUND>
COc1cc2c(c(OC)c1OC)-c1ccc(OC)c(=O)cc1[C@@H](NCc1cccc(C(=O)Nc3cc(-c4cccs4)ccc3N)c1)CC2

>  <METRIC>
pIC50

>  <RESULT_VALUE>
5.27

$$$$
>  <COMPOUND>
COc1cc2c(c(OC)c1OC)-c1ccc(OC)c(=O)cc1[C@@H](NC(=O)c1ccc(C(=O)Nc3ccccc3N)cc1)CC2

>  <METRIC>
pIC50

>  <RESULT_VALUE>
4.98

$$$$
>  <COMPOUND>
COc1cc2c(c(OC)c1OC)-c1ccc(OC)c(=O)cc1[C@@H](NCc1ccc(C(=O)Nc3ccccc3N)cc1)CC2

>  <METRIC>
pIC50

>  <RESULT_VALUE>
5.17

$$$$
>  <COMPOUND>
COc1cc2c(c(OC)c1OC)-c1ccc(OC)c(=O)cc1[C@@H](NC(=O)c1cccc(C(=O)Nc3cc(-c4cccs4)ccc3N)c1)CC2

>  <METRIC>
pIC50

>  <RESULT_VALUE>
6.72

$$$$
>  <COMPOUND>
COc1cc2c(c(OC)c1OC)-c1ccc(OC)c(=O)cc1[C@@H](NCc1ccc(C(=O)Nc3cc(-c4cccs4)ccc3N)cc1)CC2

>  <METRIC>
pIC50

>  <RESULT_VALUE>
6.57

$$$$

q: Please look up its pIC50: COc1cc2c(c(OC)c1OC)-c1ccc(OC)c(=O)cc1[C@@H](NC(=O)c1cccc(C(=O)Nc3ccccc3N)c1)CC2
a: 5.31

q: Please look up its pIC50: COc1cc2c(c(OC)c1OC)-c1ccc(OC)c(=O)cc1[C@@H](NC(=O)c1ccc(C(=O)Nc3cc(-c4cccs4)ccc3N)cc1)CC2
a: 6.42

###

- ASSAY_DETAILS: Cytotoxicity against human PANC1 cells assessed as growth inhibition after 72 hrs by MTT assay
- Assay type: functional, cell-based
- TEST_SETTINGS: PANC-1, 72 h
Recorded IC50 by entry
Only the number, expressed in nM, is required.

Worked cases, answers included:
>  <COMPOUND>
COc1cc2c(c(OC)c1OC)-c1ccc(OC)c(=O)cc1[C@@H](NC(C)=O)CC2

>  <VALUE_UNIT>
nM

>  <IC50>
21

$$$$
>  <COMPOUND>
Nc1ccccc1NC(=O)c1ccc(CNc2nccc(-c3cccnc3)n2)cc1

>  <VALUE_UNIT>
nM

>  <IC50>
26800

$$$$
>  <COMPOUND>
COc1cc2c(c(OC)c1OC)-c1ccc(OC)c(=O)cc1[C@@H](NC(=O)c1cccc(C(=O)Nc3cc(-c4cccs4)ccc3N)c1)CC2

>  <VALUE_UNIT>
nM

>  <IC50>
19

$$$$

q: Please look up its IC50: COc1cc2c(c(OC)c1OC)-c1ccc(OC)c(=O)cc1[C@@H](NCc1ccc(C(=O)Nc3ccccc3N)cc1)CC2
a: 5

###

- STUDY_SYSTEM: Histone deacetylase 1 (Homo sapiens, UniProt Q13547)
- Sequence (Q13547 whole entry): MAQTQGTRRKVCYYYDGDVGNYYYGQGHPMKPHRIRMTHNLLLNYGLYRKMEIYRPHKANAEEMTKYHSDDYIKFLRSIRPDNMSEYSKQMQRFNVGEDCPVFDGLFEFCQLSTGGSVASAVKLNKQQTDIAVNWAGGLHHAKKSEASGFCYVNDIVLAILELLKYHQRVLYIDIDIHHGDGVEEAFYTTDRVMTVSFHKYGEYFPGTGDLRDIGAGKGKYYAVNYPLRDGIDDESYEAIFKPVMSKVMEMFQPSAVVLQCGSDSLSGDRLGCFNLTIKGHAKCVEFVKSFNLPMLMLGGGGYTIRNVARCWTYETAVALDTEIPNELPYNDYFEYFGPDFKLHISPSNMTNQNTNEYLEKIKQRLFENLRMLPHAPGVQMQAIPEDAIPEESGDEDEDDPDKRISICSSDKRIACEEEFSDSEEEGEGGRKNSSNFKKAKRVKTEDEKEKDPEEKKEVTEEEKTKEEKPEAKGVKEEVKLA
- ASSAY_DETAILS: Inhibition of recombinant human HDAC1 expressed in baculovirus infected insect High5 cells using Ac-Lys-Tyr-Lys (epsilon-acetyl)-AMC as substrate after 24 hrs by fluorescence assay
METRIC: pIC50
Just the number, please; pIC50 means minus log10 of the concentration in mol/L.

Worked cases, answers included:
>  <COMPOUND>
COc1cc2c(c(OC)c1OC)-c1ccc(OC)c(=O)cc1[C@@H](NCc1ccc(C(=O)Nc3cc(-c4cccs4)ccc3N)cc1)CC2

>  <RESULT_VALUE>
5.48

$$$$
>  <COMPOUND>
COc1cc2c(c(OC)c1OC)-c1ccc(OC)c(=O)cc1[C@@H](NCc1ccc(C(=O)Nc3ccccc3N)cc1)CC2

>  <RESULT_VALUE>
4.90

$$$$
>  <COMPOUND>
COc1cc2c(c(OC)c1OC)-c1ccc(OC)c(=O)cc1[C@@H](NCc1cccc(C(=O)Nc3cc(-c4cccs4)ccc3N)c1)CC2

>  <RESULT_VALUE>
4.59

$$$$
>  <COMPOUND>
COc1cc2c(c(OC)c1OC)-c1ccc(OC)c(=O)cc1[C@@H](NC(=O)c1ccc(C(=O)Nc3cc(-c4cccs4)ccc3N)cc1)CC2

>  <RESULT_VALUE>
5.65

$$$$
>  <COMPOUND>
COc1cc2c(c(OC)c1OC)-c1ccc(OC)c(=O)cc1[C@@H](NC(=O)c1cccc(C(=O)Nc3cc(-c4cccs4)ccc3N)c1)CC2

>  <RESULT_VALUE>
5.82

$$$$

q: Please look up its pIC50: COc1cc2c(c(OC)c1OC)-c1ccc(OC)c(=O)cc1[C@@H](NC(=O)c1ccc(C(=O)Nc3ccccc3N)cc1)CC2
a: 4.80

q: Please look up its pIC50: COc1cc2c(c(OC)c1OC)-c1ccc(OC)c(=O)cc1[C@@H](NC(=O)c1cccc(C(=O)Nc3ccccc3N)c1)CC2
a: 5.02

###

- ASSAY_DETAILS: Cytotoxicity against human MKN45 cells assessed as growth inhibition after 72 hrs by MTT assay
- Type: functional, cell-based
- TEST_SETTINGS: MKN-45, 72 h
METRIC: IC50
Answers without a unit are incomplete; give the number and then its unit.

>  <COMPOUND>
Nc1ccccc1NC(=O)c1ccc(CNc2nccc(-c3cccnc3)n2)cc1

>  <METRIC>
IC50

>  <RESULT_VALUE>
610 nM

$$$$
>  <COMPOUND>
COc1cc2c(c(OC)c1OC)-c1ccc(OC)c(=O)cc1[C@@H](NC(=O)c1cccc(C(=O)Nc3cc(-c4cccs4)ccc3N)c1)CC2

>  <METRIC>
IC50

>  <RESULT_VALUE>
2 nM

$$$$
>  <COMPOUND>
COc1cc2c(c(OC)c1OC)-c1ccc(OC)c(=O)cc1[C@@H](NC(C)=O)CC2

>  <METRIC>
IC50

>  <RESULT_VALUE>
2 nM

$$$$

// next entry
q: Please look up its IC50: COc1cc2c(c(OC)c1OC)-c1ccc(OC)c(=O)cc1[C@@H](NCc1ccc(C(=O)Nc3ccccc3N)cc1)CC2
a: 2 nM

###

- STUDY_SYSTEM: Histone deacetylase 3 (Homo sapiens)
- Sequence (O15379 whole entry): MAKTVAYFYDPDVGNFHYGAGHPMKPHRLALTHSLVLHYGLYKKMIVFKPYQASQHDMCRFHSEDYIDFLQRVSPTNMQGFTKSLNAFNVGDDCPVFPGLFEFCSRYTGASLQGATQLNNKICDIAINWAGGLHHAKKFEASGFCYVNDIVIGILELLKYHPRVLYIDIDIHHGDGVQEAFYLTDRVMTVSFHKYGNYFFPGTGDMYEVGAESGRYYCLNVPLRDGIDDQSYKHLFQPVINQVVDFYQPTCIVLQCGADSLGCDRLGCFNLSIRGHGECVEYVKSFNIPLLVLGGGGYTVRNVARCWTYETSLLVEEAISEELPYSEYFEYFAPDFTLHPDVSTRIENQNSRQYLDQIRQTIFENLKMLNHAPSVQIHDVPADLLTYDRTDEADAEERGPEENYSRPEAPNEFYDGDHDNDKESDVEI
- ASSAY_DETAILS: Inhibition of recombinant human HDAC3 expressed in baculovirus infected insect High5 cells using Ac-Lys-Tyr-Lys (epsilon-acetyl)-AMC as substrate after 3 hrs by fluorescence assay
METRIC: IC50 (µM)
Only the number, expressed in µM, is required.

Worked cases, answers included:
>  <COMPOUND>
COc1cc2c(c(OC)c1OC)-c1ccc(OC)c(=O)cc1[C@@H](NC(=O)c1cccc(C(=O)Nc3ccccc3N)c1)CC2

>  <IC50, µM>
10.8

$$$$
>  <COMPOUND>
COc1cc2c(c(OC)c1OC)-c1ccc(OC)c(=O)cc1[C@@H](NC(=O)c1ccc(C(=O)Nc3ccccc3N)cc1)CC2

>  <IC50, µM>
12.1

$$$$
>  <COMPOUND>
COc1cc2c(c(OC)c1OC)-c1ccc(OC)c(=O)cc1[C@@H](NC(=O)c1cccc(C(=O)Nc3cc(-c4cccs4)ccc3N)c1)CC2

>  <IC50, µM>
1.49

$$$$
>  <COMPOUND>
COc1cc2c(c(OC)c1OC)-c1ccc(OC)c(=O)cc1[C@@H](NCc1ccc(C(=O)Nc3cc(-c4cccs4)ccc3N)cc1)CC2

>  <IC50, µM>
1.47

$$$$
>  <COMPOUND>
COc1cc2c(c(OC)c1OC)-c1ccc(OC)c(=O)cc1[C@@H](NC(=O)c1ccc(C(=O)Nc3cc(-c4cccs4)ccc3N)cc1)CC2

>  <IC50, µM>
1.97

$$$$
>  <COMPOUND>
COc1cc2c(c(OC)c1OC)-c1ccc(OC)c(=O)cc1[C@@H](NCc1cccc(C(=O)Nc3cc(-c4cccs4)ccc3N)c1)CC2

>  <IC50, µM>
19.7

$$$$

// next entry
q: Write down the reported IC50 of COc1cc2c(c(OC)c1OC)-c1ccc(OC)c(=O)cc1[C@@H](NCc1ccc(C(=O)Nc3ccccc3N)cc1)CC2 , test system: Histone deacetylase 3 (Homo sapiens).
a: 11.2
